Could you please report measured shrunken log2 fold change for the items listed next?
- Tested on: Escherichia coli TOP10
- assayExplanation: shrunken log2 fold change of peptide-encoding DNA abundance (4.5 h post-induction vs induction); higher = less antimicrobial activity (less host growth inhibition)
- measurementSetup: time post-induction: 4.5 h; library: site-saturation at positions 5, 18, 19, 20

- sequenceContent: "RRIRFRPPRLPRPRPRPEPLPRP"
  targetOfAssay: "Escherichia coli TOP10"
  shrunken log2 fold change: 0.0513
- sequenceContent: "RRIRNRPPRLPRPRPRPGDDPRP"
  targetOfAssay: "Escherichia coli TOP10"
  shrunken log2 fold change: 0.0116
- sequenceContent: "RRIRFRPPRLPRPRPRPMNGPRP"
  targetOfAssay: "Escherichia coli TOP10"
  shrunken log2 fold change: -0.0885
- sequenceContent: "RRIRQRPPRLPRPRPRPFHNPRP"
  targetOfAssay: "Escherichia coli TOP10"
  shrunken log2 fold change: -0.152
- sequenceContent: "RRIRARPPRLPRPRPRPVWDPRP"
  targetOfAssay: "Escherichia coli TOP10"
  shrunken log2 fold change: 0.312
- sequenceContent: "RRIRWRPPRLPRPRPRPCTQPRP"
  targetOfAssay: "Escherichia coli TOP10"
  shrunken log2 fold change: -0.177

Batch of 2 sequences: report shrunken log2 fold change for each.
1. RRIRKRPPRLPRPRPRPRNDPRP
2. RRIRPRPPRLPRPRPRPPMDPRP

## Output
1: 0.352; 2: 0.126

Hey, quick one: what's shrunken log2 fold change for each of these?
1. RRIRERPPRLPRPRPRPAKEPRP
2. RRIRCRPPRLPRPRPRPGSYPRP
3. RRIRGRPPRLPRPRPRPWMEPRP
4. RRIRTRPPRLPRPRPRPYADPRP
5. RRIRGRPPRLPRPRPRPFCYPRP

## Output
1. 0.0889
2. -0.525
3. 0.563
4. -0.22
5. 0.362

Batch request: shrunken log2 fold change for each of the following sequences.
1. RRIRSRPPRLPRPRPRPCKMPRP
2. RRIRGRPPRLPRPRPRPHESPRP

## Output
-0.215
0.784

###

Give shrunken log2 fold change for every item shown.
- Test system: Escherichia coli TOP10;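 note: peptides expressed intracellularly from a pBAD plasmid library in pooled LB shake-flask culture, induced with 0.3% L-arabinose, DNA abundance read by NGS, three biological replicates, DESeq2 with apeglm shrinkage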
- assayExplanation: shrunken log2 fold change of peptide-encoding DNA abundance (4.5 h post-induction vs induction); higher = less antimicrobial activity (less host growth inhibition)
- measurementSetup: time post-induction: 4.5 h; library: site-saturation at positions 5, 18, 19, 20
One number for each entry.

- sequenceContent: "RRIRPRPPRLPRPRPRPLMVPRP"
  shrunken log2 fold change: -0.0973
- sequenceContent: "RRIRIRPPRLPRPRPRPYHYPRP"
  shrunken log2 fold change: -0.415
- sequenceContent: "RRIRCRPPRLPRPRPRPNNMPRP"
  shrunken log2 fold change: -0.745
- sequenceContent: "RRIRIRPPRLPRPRPRPWLNPRP"
  shrunken log2 fold change: -0.562
- sequenceContent: "RRIRRRPPRLPRPRPRPCSVPRP"
  shrunken log2 fold change: 0.178

Provide each entry's shrunken log2 fold change from the list below.
1. RRIRFRPPRLPRPRPRPYKTPRP
2. RRIRIRPPRLPRPRPRPRCCPRP
3. RRIRLRPPRLPRPRPRPDFHPRP
4. RRIRRRPPRLPRPRPRPNYIPRP
5. RRIRVRPPRLPRPRPRPDEHPRP
6. RRIRHRPPRLPRPRPRPVQYPRP
7. RRIRNRPPRLPRPRPRPGEQPRP
8. RRIRNRPPRLPRPRPRPTWFPRP

## Output
1: -0.166; 2: -0.181; 3: -0.206; 4: -0.237; 5: 0.0107; 6: 0.00489; 7: 0.137; 8: 0.415

Please supply shrunken log2 fold change for each of the following items, keeping them in order.
1. RRIRCRPPRLPRPRPRPIEMPRP
2. RRIRWRPPRLPRPRPRPERIPRP

## Output
-0.0735
0.0766
